Hey, just so you know, these numbers are from patent US20110262446A1.

# assayed.target: IGF-IIE (amino acids 1-104) (human) (UniProt P01344)
# Sequence (P01344 25-128 limits assumed, form in doubt): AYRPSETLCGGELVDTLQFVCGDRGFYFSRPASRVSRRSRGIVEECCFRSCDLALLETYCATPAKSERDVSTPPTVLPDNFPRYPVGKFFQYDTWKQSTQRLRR
# method.description: SPR (Biacore T100): IgG captured on Protein G', ligand bound, then BP injected; competitor BP4
recorded.endpoint: competition score (0 = does not compete significantly, 5 = competes strongly) (score 0-5)
Write it as a number; the unit score 0-5 goes unstated.

Worked cases, competition score (0 = does not compete significantly, 5 = competes strongly) given:
M0064-E04 IgG (antibody, V domains shown) VH: EVQLLESGGGLVQPGGSLRLSCAASGFTFSVYDMNWVRQAPGKGLEWVSSISSSGGGTLYADSVKGRFTISRDNSKNTLYLQMNSLRAEDTAVYYCARDSDTSSYYWYYDLWGRGTLVTVSS VL: DIQMTQSPSSLSASVGDRVTITCQASHDISNYLNWYQQKPGKAPKLLIYAASRLQSGVPSRFSGGGSGTDFSLTISSLQAEDFATYYCQQSYSFPRTFGQGTNLEIK :: 4
M0072-C06 IgG (antibody, V domains shown) VH: EVQLLESGGGLVQPGGSLRLSCAASGFTFSAYIMTWVRQAPGKGLEWVSSISPSGGYTVYADSVKGRFTISRDNSKNTLYLQMNSLRAEDTAVYYCARDSGFGDPFDYWGQGTMVTVSS VL: DIQMTQSPSSLSASVGDRVTITCRASQSIRNYLNWYQQKPGKAPKLLIYAASKLEDGVPSRFSGSGTGTDFTLTIRSLQPEDFASYFCQQSYSSPGITFGPGTKVEIK :: 1

Please report the recorded competition score (0 = does not compete significantly, 5 = competes strongly) for M0070-H08 IgG (antibody, V domains shown) VH: EVQLLESGGGLVQPGGSLRLSCAASGFTFSRYWMIWVRQAPGKGLEWVSSIRSSGETKYADSVKGRFTISRDNSKNTLYLQMNSLRAEDTAVYYCARGPLSDYYDSSGYYFDAFDIWGQGTMVTVSS VL: DIQMTQSPSSLSASAGDRVTITCRASQSISSYLNWYQQKPGKAPNLLIYTTSNLQGGVPSRFSGSGSGTDFTLTISSLQPEDFATYYCQQGYSFPLTFGGGTKVEIK . 1

Please report the recorded competition score (0 = does not compete significantly, 5 = competes strongly) for M0063-F02 IgG (antibody, V domains shown) VH: EVQLLESGGGLVQPGGSLRLSCAASGFTFSKYEMDWVRQAPGKGLEWVSVISSSGGGTIYADSVKGRFTISRDNSKNTLYLQMNSLRAEDTAMYYCARGRTLYGGAFDIWGQGTMVTVSS VL: DIQMTQSPSSLSASVGDRVTITCRASQPINTYLNWYQQRPGKAPRILIYTSSTLQSGVPSRFSGSGSGTDFTLTISSVQPEDFATYYCQQSYSFPLTFGGGTKVEIK . 1
